target: Beta-secretase 1 (Homo sapiens); experiment: Inhibition of recombinant human BACE1 using fluorogenic peptide 4 as substrate at 10 uM by FRET assay
MEASURE_NAME: inhibition (%)

Consider the following illustrative entries.
smiles_code=CCOC(=O)COc1ccc(C(=O)OC)cc1N(C/C=C(\C)CC/C=C(\C)CCC=C(C)C)CC(=O)OCC endpoint_result=0
smiles_code=CC(=O)Oc1ccc(C(=O)O)cc1C/C=C(\C)CC/C=C(\C)CC/C=C(\C)CCC=C(C)C endpoint_result=17
smiles_code=CCCS(=O)(=O)Oc1ccc(C(=O)O)cc1NC/C=C(\C)CC/C=C(\C)CCC=C(C)C endpoint_result=3

1 = CC(C)=CCC/C(C)=C/CC/C(C)=C/CC/C(C)=C/Cc1cc(C(=O)O)ccc1O
2 = CCCOc1ccc(C(=O)OC)cc1NC/C=C(\C)CC/C=C(\C)CCC=C(C)C
3 = COC(=O)c1ccnc(NC/C=C(\C)CC/C=C(\C)CCC=C(C)C)c1
Ascending by inhibition, please. Write the labels, ordered according to the request.
1, 2, 3

----------
molecular target: UniProtKB P56817; test: Inhibition of recombinant human BACE1 using fluorogenic peptide 4 as substrate at 10 uM by FRET assay
MEASURE_NAME: inhibition (%)

smiles_code=COC(=O)c1ccc2c(c1)N(C/C=C(\C)CC/C=C(\C)CCC=C(C)C)C(=O)CO2 measured_target="UniProtKB P56817" measure_name=inhibition unit_tag=% endpoint_result=22

I = COc1ccc(C(=O)O)cc1NC/C=C(\C)CC/C=C(\C)CCC=C(C)C
II = CC(C)=CCC/C(C)=C/CC/C(C)=C/Cc1cc(C(=O)O)ccc1O
III = CC(C)=CCC/C(C)=C/CC/C(C)=C/CN1C(=O)COc2ccc(C(=O)O)cc21
Ascending by inhibition, please. Write the labels, ordered according to the request.
I, II, III
(I: 0%, II: 5%, III: 17%)

----------
biological target: Beta-secretase 1 (Homo sapiens) (UniProt P56817); test: Inhibition of BACE1 (unknown origin) expressed in human APP751 transfected CHO-7W cells assessed as inhibition of amyloid-beta (1 to 40) peptide production at 1 uM after 24 hrs by Abeta40 human ELISA Kit; format: cell-based
Sequence (P56817 whole entry): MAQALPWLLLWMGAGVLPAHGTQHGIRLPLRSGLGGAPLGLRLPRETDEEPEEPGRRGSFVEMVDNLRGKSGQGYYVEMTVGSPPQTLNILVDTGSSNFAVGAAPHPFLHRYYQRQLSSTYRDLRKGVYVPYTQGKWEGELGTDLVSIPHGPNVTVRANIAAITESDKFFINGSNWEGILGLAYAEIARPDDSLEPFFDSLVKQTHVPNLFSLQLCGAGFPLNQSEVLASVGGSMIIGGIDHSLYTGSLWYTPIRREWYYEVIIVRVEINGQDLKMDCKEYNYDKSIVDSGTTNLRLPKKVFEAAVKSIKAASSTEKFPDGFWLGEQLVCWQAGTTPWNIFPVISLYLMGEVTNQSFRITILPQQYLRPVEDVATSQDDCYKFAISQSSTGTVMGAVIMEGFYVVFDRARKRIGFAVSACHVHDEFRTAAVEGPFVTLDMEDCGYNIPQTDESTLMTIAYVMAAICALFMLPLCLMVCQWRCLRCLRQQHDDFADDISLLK
MEASURE_NAME: inhibition (%)

smiles_code=COC(=O)c1ccc2c(c1)N(C/C=C(\C)CC/C=C(\C)CCC=C(C)C)C(=O)CO2 endpoint_result=0
smiles_code=CC(=O)Oc1ccc(C(=O)O)cc1C/C=C(\C)CC/C=C(\C)CC/C=C(\C)CCC=C(C)C endpoint_result=24
smiles_code=COC(=O)c1ccc(OC)c(NC/C=C(\C)CC/C=C(\C)CCC=C(C)C)c1 endpoint_result=0

1 = CCCS(=O)(=O)Oc1ccc(C(=O)O)cc1NC/C=C(\C)CC/C=C(\C)CCC=C(C)C
2 = COC(=O)c1ccc(OC)c(NC[C@H](O)[C@@H](Cc2ccccc2)NC/C=C(\C)CCC=C(C)C)c1
// which entry has the larger inhibition value, 1 or 2 ? Please respond with the label that marks your chosen entry.
1

----------
biological target: UniProt P56817; experiment: Inhibition of recombinant human BACE1 using fluorogenic peptide 4 as substrate at 1 uM by FRET assay
MEASURE_NAME: inhibition (%)

1 = CC(C)=CCC/C(C)=C/CC/C(C)=C/Cc1cc(C(=O)O)ccc1O
2 = COC(=O)c1ccc2c(c1)N(C/C=C(\C)CC/C=C(\C)CCC=C(C)C)C(=O)CO2
Which entry shows the lesser value of inhibition here, 1 or 2 ? Please respond with the label that marks your chosen entry.
2
